experiment: Cytotoxicity against HEK293 cells assessed as reduction in cell viability measured after 6 hrs by MTS assay; assay type: toxicity, cell-based; details: human, read-out: LD50
outcome measure: CC50 at 6 h

Example compounds with recorded CC50 at 6 h:
* c1ccc2c(-c3ccc4n[se]nc4c3)c[nH]c2c1 | 30 µM
* c1ccc2c(-c3ccc4nsnc4c3)c[nH]c2c1 | > 80 µM
* c1ccc2c(-c3ccc4nonc4c3)c[nH]c2c1 | > 80 µM
* c1ccc2c(-c3cnc4nsnc4c3)c[nH]c2c1 | > 80 µM

Exercise: Quickly give me recorded CC50 at 6 h for `c1ccc2c(-c3cnc4n[se]nc4c3)c[nH]c2c1`
Solution: > 80 µM

----------
system: A 172; test: Cytotoxicity against human A 172 cells assessed as reduction in cell viability measured after 6 hrs by MTS assay; assay type: functional; conditions: read-out: LD50 (the source's name)
Recorded measurements of CC50, one per entry
Write the value in µM as a bare number.

Example compounds with recorded CC50:
* c1ccc2c(-c3ccc4n[se]nc4c3)c[nH]c2c1 | 30
* c1ccc2c(-c3ccc4nsnc4c3)c[nH]c2c1 | 30

Exercise: Quickly give me recorded CC50 for `c1ccc2c(-c3ccc4nonc4c3)c[nH]c2c1`
Solution: 30

----------
molecular target: Tryptophan 2,3-dioxygenase (Homo sapiens, UniProt P48775); experiment: Inhibition of human TDO2 expressed in mouse P815B cells using L-tryptophan as substrate incubated for 7 hrs by UPLC analysis; type: cell-based
Sequence (P48775 whole entry): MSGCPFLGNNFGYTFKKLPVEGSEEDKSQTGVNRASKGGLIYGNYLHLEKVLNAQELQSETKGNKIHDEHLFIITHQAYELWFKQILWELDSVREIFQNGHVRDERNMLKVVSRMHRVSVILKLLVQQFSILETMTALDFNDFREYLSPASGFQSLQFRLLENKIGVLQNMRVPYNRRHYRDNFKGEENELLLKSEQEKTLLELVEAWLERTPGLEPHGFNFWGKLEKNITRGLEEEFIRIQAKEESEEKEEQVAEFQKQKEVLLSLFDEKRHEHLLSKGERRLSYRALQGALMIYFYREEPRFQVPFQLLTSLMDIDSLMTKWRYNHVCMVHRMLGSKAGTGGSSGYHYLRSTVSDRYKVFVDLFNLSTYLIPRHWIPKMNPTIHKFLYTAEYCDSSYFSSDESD
Recorded measurements of IC50, one per entry
Write the value in nM as a bare number.

• c1ccc2c(-c3ccc4nsnc4c3)c[nH]c2c1 = 129

Continue with the next compound.
Exercise: Quickly give me recorded IC50 for `c1ccc2c(-c3ccc4n[se]nc4c3)c[nH]c2c1`
Solution: 94

----------
assay: Cytotoxicity against HEK293 cells assessed as reduction in cell viability measured after 24 hrs by MTS assay; type: toxicity, cell-based; conditions: human, read-out: LD50
outcome measure: CC50 at 24 h

Example compounds with recorded CC50 at 24 h:
• c1ccc2c(-c3ccc4nsnc4c3)c[nH]c2c1 = > 80 µM
• c1ccc2c(-c3ccc4n[se]nc4c3)c[nH]c2c1 = 10 µM
• c1ccc2c(-c3ccc4nonc4c3)c[nH]c2c1 = > 80 µM
• c1ccc2c(-c3cnc4nsnc4c3)c[nH]c2c1 = > 80 µM

Exercise: Quickly give me recorded CC50 at 24 h for `c1ccc2c(-c3cnc4n[se]nc4c3)c[nH]c2c1`
Solution: > 80 µM

----------
Recorded measurements of half-life at 10 µM, one per entry
assay: Metabolic stability in liver microsomes assessed as half life at 10 uM measured upto 24 hrs in the presence of NADPH by UPLC analysis; format: ADME, Microsome
Write the value in min as a bare number.

Example compounds with recorded half-life at 10 µM:
• c1ccc2c(-c3cnc4nsnc4c3)c[nH]c2c1 = 22
• c1ccc2c(-c3ccc4n[se]nc4c3)c[nH]c2c1 = 70.2
• c1ccc2c(-c3ccc4nonc4c3)c[nH]c2c1 = 24.6

Exercise: Quickly give me recorded half-life at 10 µM for `c1ccc2c(-c3cnc4n[se]nc4c3)c[nH]c2c1`
Solution: 28.3

Exercise: Quickly give me recorded half-life at 10 µM for `c1ccc2c(-c3ccc4nsnc4c3)c[nH]c2c1`
Solution: 35.6
